# measurement.description: HPLC capacity factor (k') (artificial membrane chromatography)
# Assay type: ADME
assay.endpoint: Log relative k'

1) O=C(O)CCCCCCCNC(=O)c1ccccc1O :: 0.68
2) O=C(O)CCCCCCCCCCCNC(=O)c1ccccc1O :: 2.32
3) COc1cc(Cl)ccc1C(=O)NCCCCCCCC(=O)O :: 0.79
4) O=C(O)CCCCCNC(=O)c1ccccc1O :: 0.04
5) Cc1cccc(C(=O)NCCCCCCCC(=O)O)c1O :: 1.23
6) O=C(O)CCCCCCCNC(=O)c1cc(I)ccc1O :: 1.72
7) O=C(O)CCCCCCCNC(=O)c1ccc(I)cc1 :: 0.97
8) O=C(O)CCCCCCCNC(=O)c1ccccc1C(=O)O :: -1
9) O=C(O)CCCCCCCNC(=O)c1ccccn1 :: -0.52
10) O=C(O)CCCCCCCCNC(=O)c1ccccc1O :: 1.04
11) O=C(O)CCCNC(=O)c1ccccc1O :: -0.41
12) O=C(O)CCCCCCCNC(=O)c1ccc(O)cc1 :: -0.04
13) O=C(O)CCCCCCCNC(=O)c1cc2ccccc2cc1O :: 1.7
14) O=C(O)CCCCCCCNC(=O)C/C=C/c1ccccc1 :: 0.7
15) O=C(O)CCCCCCCNC(=O)c1cccc(O)c1O :: 0.46
16) O=C(O)CCCCCCCNC(=O)C1CCCCC1 :: 0.15
17) O=C(O)CCCCCCCNC(=O)c1ccc(Cl)cc1O :: 1.43
18) O=C(O)CNC(=O)c1ccccc1O :: -0.68
19) O=C(O)CCCCCCCNC(=O)c1cccnc1O :: 0.9
20) O=C(O)CCCCCCCNC(=O)c1ccc(Cl)c([N+](=O)[O-])c1 :: 0.94
21) O=C(O)CCCCCCCNC(=O)c1cc(O)ccc1O :: 0.51
22) O=C(O)CCCCCCCNC(=O)c1ccc([N+](=O)[O-])cc1 :: 0.44

Origin of measurements: ChEMBL document CHEMBL1131318
